All figures here come from ChEMBL document CHEMBL4118269.

Give CLint scaled at 0.75 h, 1 µM for every item shown.
assayMethodText: in vitro
cond: Sprague-Dawley, rat, liver microsomes
State the value, then name its unit.

Below are 6 molecules. Give each one its CLint scaled at 0.75 h, 1 µM.
1. O=C(N[C@@H](Cn1ccnc1)c1ccc(Cl)cc1Cl)c1ccc(-c2nnc(-c3cc(F)cc(OCC(F)(F)F)c3)o2)cc1
2. O=C(N[C@@H](Cn1ccnc1)c1ccc(Cl)cc1Cl)c1ccc(-c2nnc(-c3cc(F)cc(-c4ncncc4F)c3)o2)cc1
3. O=C(N[C@@H](Cn1ccnc1)c1ccc(Cl)cc1Cl)c1ccc(-c2nnc(-c3cc(F)cc(-c4ccccn4)c3)o2)cc1
4. O=C(N[C@@H](Cn1ccnc1)c1ccc(Cl)cc1Cl)c1ccc(-c2nnc(-c3cccc(-c4ccccn4)c3)o2)cc1
5. O=C(N[C@@H](Cn1ccnc1)c1ccc(Cl)cc1Cl)c1ccc(-c2nnc(-c3ccc(-c4ccccn4)cc3F)o2)cc1
6. O=C(N[C@@H](Cn1ccnc1)c1ccc(Cl)cc1Cl)c1ccc(-c2nnc(-c3cc(-c4ccccn4)ccc3F)o2)cc1

["50.4 mL/min/kg", "27 mL/min/kg", "36 mL/min/kg", "68 mL/min/kg", "51.6 mL/min/kg", "49.4 mL/min/kg"]

Below are 4 molecules. Give each one its CLint scaled at 0.75 h, 1 µM.
1. O=C(N[C@@H](Cn1ccnc1)c1ccc(Cl)cc1Cl)c1ccc(-c2nnc(-c3ccc(OCC(F)(F)F)cc3F)o2)cc1
2. O=C(N[C@@H](Cn1ccnc1)c1ccc(Cl)cc1Cl)c1ccc(-c2nnc(-c3ccc(-c4ccccn4)cc3)o2)cc1
3. CS(=O)(=O)c1ccc(-c2nnc(-c3ccc(C(=O)N[C@@H](Cn4ccnc4)c4ccc(Cl)cc4Cl)cc3)o2)cc1Cl
4. O=C(N[C@@H](Cn1ccnc1)c1ccc(Cl)cc1Cl)c1ccc(-c2nnc(-c3ccccc3)o2)cc1

1. 64 mL/min/kg
2. 94 mL/min/kg
3. 104 mL/min/kg
4. 26.4 mL/min/kg

Below are 4 molecules. Give each one its CLint scaled at 0.75 h, 1 µM.
1. O=C(N[C@@H](Cn1ccnc1)c1ccc(Cl)cc1Cl)c1ccc(-c2nnc(-c3ccc(F)c(F)c3)o2)cc1
2. O=C(N[C@@H](Cn1ccnc1)c1ccc(Cl)cc1Cl)c1ccc(-c2nnc(-c3cccc(Br)c3)o2)cc1
3. O=C(N[C@@H](Cn1ccnc1)c1ccc(Cl)cc1Cl)c1ccc(-c2nnc(-c3ccc(C(F)(F)F)c(F)c3)o2)cc1
4. O=C(N[C@@H](Cn1ccnc1)c1ccc(Cl)cc1Cl)c1ccc(-c2nnc(-c3ccc(Cl)c(Cl)c3)o2)cc1

31 mL/min/kg
27 mL/min/kg
36 mL/min/kg
70 mL/min/kg

----------
assayMethodText: Lipophilicity, log P of the compound
Type: physicochemical
cond: octanol/water
Give logP for every item shown.

// below: answered compounds
1) O=C(N[C@@H](Cn1ccnc1)c1ccc(Cl)cc1Cl)c1ccc(-c2nnc(-c3cccc(Br)c3)o2)cc1; 5.4
2) O=C(N[C@@H](Cn1ccnc1)c1ccc(Cl)cc1Cl)c1ccc(-c2nnc(-c3ccc(-c4ccccn4)cc3)o2)cc1; 5.33
3) O=C(N[C@@H](Cn1ccnc1)c1ccc(Cl)cc1Cl)c1ccc(-c2nnc(-c3ccc(C(F)(F)F)c(F)c3)o2)cc1; 5.65

Let us move to another entry and its logP.
Tell us which logP value is on record for O=C(N[C@@H](Cn1ccnc1)c1ccc(Cl)cc1Cl)c1ccc(-c2nnc(-c3cc(F)cc(OCC(F)(F)F)c3)o2)cc1
5.58

----------
assayMethodText: Lipophilicity, log P of the compound
Format: physicochemical
cond: octanol/water
assayReadout: logP
One number for each entry.

// below: answered compounds
1) O=C(N[C@@H](Cn1ccnc1)c1ccc(Cl)cc1Cl)c1ccc(-c2nnc(-c3cc(-c4ccccn4)ccc3F)o2)cc1; 5.49
2) O=C(N[C@@H](Cn1ccnc1)c1ccc(Cl)cc1Cl)c1ccc(-c2nnc(-c3cccc(-c4ccccn4)c3)o2)cc1; 5.33
3) O=C(N[C@@H](Cn1ccnc1)c1ccc(Cl)cc1Cl)c1ccc(-c2nnc(-c3ccc(N4CCOCC4)cc3)o2)cc1; 4.45

Let us move to another entry and its logP.
Tell us which logP value is on record for O=C(N[C@@H](Cn1ccnc1)c1ccc(Cl)cc1Cl)c1ccc(-c2nnc(-c3ccc(OCC(F)(F)F)cc3F)o2)cc1
5.58

----------
assayMethodText: in vitro
cond: human, liver microsomes
assayReadout: CLhep predicted at 0.75 h, 1 µM (mL/min/kg)
Numbers only, in mL/min/kg.

1. O=C(N[C@@H](Cn1ccnc1)c1ccc(Cl)cc1Cl)c1ccc(-c2nnc(-c3ccc(-c4ccccn4)cc3)o2)cc1; 7.15

Below are 2 compounds. Give each one its CLhep predicted at 0.75 h, 1 µM.
1. O=C(N[C@@H](Cn1ccnc1)c1ccc(Cl)cc1Cl)c1ccc(-c2nnc(-c3cccc(-c4ccccn4)c3)o2)cc1
2. O=C(N[C@@H](Cn1ccnc1)c1ccc(Cl)cc1Cl)c1ccc(-c2nnc(-c3cc(-c4ccccn4)ccc3F)o2)cc1

1: 8.06; 2: 6.85

----------
assayMethodText: in vitro
cond: Sprague-Dawley, rat, liver microsomes
Decide by CLhep predicted at 0.75 h, 1 µM: equal to or exceeding 30 mL/min/kg means Yes, less means No.

A selection of reference data follows.
1) O=C(N[C@@H](Cn1ccnc1)c1ccc(Cl)cc1Cl)c1ccc(-c2nnc(-c3ccc(-c4ccccn4)cc3)o2)cc1; Yes
2) CS(=O)(=O)c1ccc(-c2nnc(-c3ccc(C(=O)N[C@@H](Cn4ccnc4)c4ccc(Cl)cc4Cl)cc3)o2)cc1Cl; Yes
3) O=C(N[C@@H](Cn1ccnc1)c1ccc(Cl)cc1Cl)c1ccc(-c2nnc(-c3cc(F)cc(-c4ccccn4)c3)o2)cc1; No

Assess whether reported CLhep predicted at 0.75 h, 1 µM for O=C(N[C@@H](Cn1ccnc1)c1ccc(Cl)cc1Cl)c1ccc(-c2nnc(-c3ccc(OCC(F)(F)F)cc3F)o2)cc1 sits at 30 mL/min/kg or higher.
Yes

Assess whether reported CLhep predicted at 0.75 h, 1 µM for O=C(N[C@@H](Cn1ccnc1)c1ccc(Cl)cc1Cl)c1ccc(-c2nnc(-c3cc(F)cc(-c4ncncc4F)c3)o2)cc1 sits at 30 mL/min/kg or higher.
No
